# test protocol: gradient 5% acetonitrile 3 min, to 50% in 2 min, to 85% in 15 min, held 3 min, 100 µL/min
# study conditions: column: Zorbax Extend-C18 2.1 x 50 mm; eluents: water / acetonitrile, 0.1% formic acid
assay endpoint: RP-LC retention time (s)
Numeric answer only, unit s assumed.

Example entries begin here.
Record request: RP-LC retention time value, item Cc1ccc(Cl)cc1NC(=O)N1CCCC1c1c(C)noc1C (stereo not given)
853

Try "Cc1ccc(-c2csc(NC(=O)c3sc(-c4ccccc4)nc3C)n2)cc1" next.
1300

Query "O=C(Nc1cc(F)cc(F)c1)C1CCN(c2cc(N3CCCC3)ncn2)CC1" next
724

Please do the same for CCOC(=O)C1CCCN(C(=O)Cn2c3ccccc3c3cnn(C)c(=O)c32)C1 (stereo not given) as well.
826

More entries:
What does the data say about its RP-LC retention time? Entry: "Fc1cccc(-c2noc(Cc3nnc(-c4ccccc4)o3)n2)c1"
974

---

Overview of reported RP-LC retention time across a group of compounds:
# test protocol: gradient 5% acetonitrile 3 min, to 50% in 2 min, to 85% in 15 min, held 3 min, 100 µL/min
# study conditions: column: Zorbax Extend-C18 2.1 x 50 mm; eluents: water / acetonitrile, 0.1% formic acid
Numbers only here, please. The scale is s.

Name the recorded RP-LC retention time for "CO/N=C1/C=C(C)C(=O)C(C)=C1C" .
1040

Others:
Entry "Cc1c(Cl)cccc1Nc1c(-c2ccc(O)cc2)nc2ncccn12" : reported RP-LC retention time = ?
705

---

# test protocol: gradient 5% acetonitrile 3 min, to 50% in 2 min, to 85% in 15 min, held 3 min, 100 µL/min
# study conditions: column: Zorbax Extend-C18 2.1 x 50 mm; eluents: water / acetonitrile, 0.1% formic acid
assay endpoint: RP-LC retention time (s)
Note: unit s is implicit; provide only the numeric part.

Below are worked cases with known answers.
I'd like to know its RP-LC retention time. The compound in question is "O=C(c1ccc2c(c1)OCO2)N1CCCN(C(=O)C2CC2)c2ccccc21"
715

Then what about the compound "CCCN1CCN(S(=O)(=O)c2cc(-c3nnc(C4CCC4)o3)co2)CC1" ?
622

Another compound: "CC(=O)c1ccc(N(C(C)=O)S(=O)(=O)c2ccc(Cl)cc2)cc1"
841

Let us now turn to "CC(C)n1c(N2CCN(C(=O)COc3ccccc3)CC2)cc(=O)n(C(C)C)c1=O"
855

Request: "COc1cc(NC(=O)N2CCN(c3cc(C)nc(N4CCCC4)n3)CC2)cc(OC)c1OC"
634

Also, COc1ccccc1NC(=O)C1c2cc(OC)c(OC)cc2C(=O)N2CCc3ccccc3C12 (centres undefined) please.
862

Please answer likewise for "Clc1cccc(-n2ncc3c(SCc4cccnc4)ncnc32)c1"
820

Would you mind doing "Cc1ccc(-c2ncccc2CNS(=O)(=O)c2ccc(Cl)s2)cc1" as well?
780

Others:
// lookup RP-LC retention time for CCOc1ccc(NC(=O)N2CCCC(Cn3cnc4cccnc43)C2)cc1 (centres undefined)
640

---

# test protocol: gradient 5% acetonitrile 3 min, to 50% in 2 min, to 85% in 15 min, held 3 min, 100 µL/min
# study conditions: column: Zorbax Extend-C18 2.1 x 50 mm; eluents: water / acetonitrile, 0.1% formic acid
Overview of reported RP-LC retention time across a group of compounds:
I only need the number, in s, no unit after it.

Example entries begin here.
Please give the measured RP-LC retention time for this compound: "COc1ccc(CNC(=O)C2CCN(c3cncnc3N3CCOCC3)CC2)cc1"
651

Repeat with Fc1ccc(C(c2nnc(-c3ccccc3)o2)N2CCN(c3ccccn3)CC2)c(Cl)c1 (stereo not given)
978

Continue with "CCn1cc(C(=O)Nc2ccc(F)c(Cl)c2)c2cccnc21"
965

Another: "Cc1cc(C)n(-c2ccnc(N3CCC(C(=O)NCc4cccnc4)CC3)n2)n1"
612

Next entry: "CCN1CCN(C(=O)C2CCN(c3nnc(-c4ccc(OC)cc4)o3)CC2)CC1"
593

Continuing:
If you can, please state the reported RP-LC retention time value of "Cc1ccc2ncn(C3CCN(S(=O)(=O)c4ccc(C)c(F)c4)CC3)c(=O)c2c1" .
968

Same question for "CCOC(=O)c1sc(NC(=O)c2ccc([N+](=O)[O-])cc2)nc1-c1ccccc1" please.
1140

Now the compound "CN(Cc1ccc(Cl)cc1)Cc1cc(=O)n2ccccc2n1"
602

Same thing, different compound: "CN(NC1=NCCO1)c1ccc2ccccc2c1"
620

And then "O=C(CN1CCC2(CC1)N=C(c1ccc(Cl)cc1)C(=O)N2)Nc1cc(F)ccc1F" , what is it?
696

---

# test protocol: gradient 5% acetonitrile 3 min, to 50% in 2 min, to 85% in 15 min, held 3 min, 100 µL/min
# study conditions: column: Zorbax Extend-C18 2.1 x 50 mm; eluents: water / acetonitrile, 0.1% formic acid
Returns T if the recorded RP-LC retention time is greater than or equal to 900 s, and F otherwise.

These recorded examples may help you get a feel for the data.
Identify whether the reported RP-LC retention time of the following molecule is 900 s or greater: "COc1cc(OC)cc(-c2nc(-c3cn(-c4ccc(C)cc4)nn3)no2)c1"
T

Try this molecule too: "Cc1nc(-c2ccncc2)nc2c1CCC(=O)N2CCc1ccccn1"
F

How about this molecule: COc1cc(OC)c(NC(=O)C2CCCN(C(=O)c3cc(C)cc(C)c3)C2)cc1Cl (centres undefined)
T

Then this molecule: "COc1ccc(-c2nnc(-c3cc(S(=O)(=O)N4CCSCC4)ccc3Cl)o2)cc1"
T

Here is the next molecule: COCCN1CC2(CCN(S(=O)(=O)c3ccc(C)cc3)CC2)C1c1ccccc1 (centres undefined)
F

Further cases:
# bool: RP-LC retention time of "Cc1ccc(CNC(=O)Cn2ccnc2-c2ccnc(N3CCCC3)c2)cc1" >= 900 s
F

Try the molecule O=C(Nc1ccccc1)C1CC(=O)N(CCc2c[nH]c3ccc(Cl)cc23)C1 (centres undefined)
F

---

RP-LC retention time overview
# test protocol: gradient 5% acetonitrile 3 min, to 50% in 2 min, to 85% in 15 min, held 3 min, 100 µL/min
# study conditions: column: Zorbax Extend-C18 2.1 x 50 mm; eluents: water / acetonitrile, 0.1% formic acid
Numbers only here, please. The scale is s.

Entry under review: CC(C(=O)N1CCN(C(=O)c2ccco2)CC1)n1c2ccccc2c2cnn(C)c(=O)c21 (stereo not given) . Reported RP-LC retention time?
746

And for "Cc1ccc(Nc2c(-c3ccc(N(C)C)cc3)nc3ncccn23)cc1C" ?
792

Continue with CN1C(=O)c2cccn2CC1CNC(=O)NCc1ccc(F)cc1 (stereo not given)
658

Next compound up: "CCN1CCN(CCNC(=O)c2c(N3CCCC3=O)c3cc(F)ccc3n2CC)CC1"
614

Attention now turns to another entry.
Tell me the measured RP-LC retention time of "COC(=O)c1ccccc1S(=O)(=O)Nc1ccc2c(c1)CCC(=O)N2" , please.
697

---

# test protocol: gradient 5% acetonitrile 3 min, to 50% in 2 min, to 85% in 15 min, held 3 min, 100 µL/min
# study conditions: column: Zorbax Extend-C18 2.1 x 50 mm; eluents: water / acetonitrile, 0.1% formic acid
Item-by-item account of RP-LC retention time
Quick note: give the figure in s, leave out the unit.

Sample "O=C(NC1CCN(c2nnc3ccccn23)CC1)c1ccc2c(c1)OCO2" — what was its RP-LC retention time?
628

# iterate: "Cc1cc(C)c2c(N(C)C)nc(C(=O)Nc3ccc(N4CCOCC4)cc3)nc2n1"
595

// query: "O=C(c1cc(-c2ccncc2)n[nH]1)N1CCC(C(=O)N2CCc3ccccc3C2)CC1"
614

Same question for "COc1ccc(S(=O)(=O)CC(=O)Nc2nnc(-c3cc(C)oc3C)o2)cc1" please.
721

New cases:
Report RP-LC retention time for "CCOc1cc(-c2ccccc2)nc2ccc(NC(=O)c3cccs3)cc12" please.
754

Also "O=C(Cc1nnc(-c2ccccc2)o1)NCc1ccccn1" , if possible.
577

Now consider "COc1cc(NC(=O)c2csc(-c3ccc(C)n3C)n2)cc(OC)c1" .
1130

// query: "Cc1cccc(S(=O)(=O)N2CC3CN(C(=O)CC4CCCC4)CC(C2)O3)c1"
890

Consider next the compound "Cc1[nH]c(=O)[nH]c(=O)c1CCC(=O)Nc1cccc(-c2nc3ccccc3s2)c1" in the same way.
672

---

# test protocol: gradient 5% acetonitrile 3 min, to 50% in 2 min, to 85% in 15 min, held 3 min, 100 µL/min
# study conditions: column: Zorbax Extend-C18 2.1 x 50 mm; eluents: water / acetonitrile, 0.1% formic acid
Returns one of criterion met or criterion not met; criterion met when RP-LC retention time is >= 900 s.

Identify whether the reported RP-LC retention time of the following compound is 900 s or greater: "O=C(Nc1ccc(OCc2nnc(-c3ccc(Cl)cc3)o2)cc1)c1ccoc1"
criterion met

Queued: "CCCS(=O)(=O)N1[C@H]2CC[C@@H]1c1cnc(-c3ccc(F)cc3)nc1C2"
criterion met

Another: "CC(=O)Nc1ccc(S(=O)(=O)N2CC=C(c3cn(C)c4ncccc34)CC2)cc1"
criterion not met

Let us examine a further case.
Does the reported RP-LC retention time for "CCOc1ccccc1-c1noc(Cn2c(=O)n(CC(C)C)c(=O)c3ccccc32)n1" fall at or above the 900 s mark?
criterion met
